Test system: DU-145 prostate
Test: NCI tumour cell line growth inhibition, 48 h; in the data active means GI50 below about 0.43 µM; inactive means the rest
Your reply should match one of these outcome classes. active, inactive

Worked examples follow.
1. COc1cccc(/C=C/C(=O)c2ccc(Cl)cc2Cl)c1OC	inactive
2. COc1cc(/C=C/C(=O)c2cc(F)c(Cl)cc2Cl)cc(OC)c1OC	inactive
3. O=C(Nc1cnn2ccc(N3CCC[C@@H]3c3cc(F)ccc3F)nc12)N1CC[C@H](O)C1	inactive

Hi, do you know how `CC(C)(C)OC(=O)NCCCCCCCCn1c2c(c3ccccc3c1=O)C(=O)c1ccccc1-2` came out in this test? inactive

###

Exercise: for every item that follows, state its recorded GI50.
Test system: TK-10 renal
Assay: NCI tumour cell line growth inhibition, 48 h

Here's what some known entries look like.
1) COc1ccc2nc(NCCCNCCO)c3sc4ccc(F)cc4c(=O)c3c2c1	1.72 µM
2) CCOC(=O)/C=C1\SC(=Nc2ccc(C#N)cc2)N(CCN2C(=O)/C(=C/C(=O)OCC)SC2=Nc2ccc(C#N)cc2)C1=O	14.8 µM
3) O=C(Nc1cnn2ccc(N3CCC[C@@H]3c3cc(F)ccc3F)nc12)N1CC[C@H](O)C1	> 100 µM
4) CCC(C(=O)[O-])C(=O)[O-].CCC(C(=O)[O-])C(=O)[O-].N.N.NCCCCCN.[Pt+4].[Pt+4]	> 100 µM

Name the recorded GI50 of the item `C=C(CN1CCN(c2cccc(C(F)(F)F)c2)CC1)c1ccc(C(=O)Nc2ccccc2N)cc1` in your answer. 0.807 µM

###

Tested on: SF-539 CNS
Test: NCI tumour cell line growth inhibition, 48 h
Record form. Attribute: TGI. Fill in for each entry.

1) [Cl-].[Rh+3].c1ccc(-c2ccnc3c2ccc2c(-c4ccccc4)ccnc23)cc1.c1ccc(-c2ccnc3c2ccc2c(-c4ccccc4)ccnc23)cc1.c1ccc(-c2ccnc3c2ccc2c(-c4ccccc4)ccnc23)cc1	> 76 µM
2) O=C(Nc1cnn2ccc(N3CCC[C@@H]3c3cc(F)ccc3F)nc12)N1CC[C@H](O)C1	> 100 µM
3) CCOP(=O)(CC(=O)C1=C(O)C(CCCNC(=O)OC(C)(C)C)N(Cc2ccc(OC)c(OC)c2)C1=O)OCC (centres undefined)	> 100 µM
4) C/C(Cl)=N\OC(=O)Nc1ccccc1C(F)(F)F	> 100 µM
5) NCCNCC(O)CO (centres undefined)	> 100 µM

State recorded TGI for all listed compounds.
1. c1ccc2nc3[nH]c4ccccc4c3cc2c1
2. CCOC(OCC)C(CC)[Se]c1ccccc1[N+](=O)[O-] (centres undefined)

["1.23 µM", "5.61 µM"]

Answer for every listed entry: what is its TGI? The entries follow.
1. COc1ccc(C2NCCc3c2[nH]c2ccccc32)cc1CN1CCN(c2ccc(F)cc2)CC1 (centres undefined)
2. C=CCNC1=C(C(=O)OCC)C(=O)CO1

3.42 µM
> 100 µM

###

Test system: SK-OV-3 ovarian
Test: NCI tumour cell line growth inhibition, 48 h; in the data active means GI50 below about 0.43 µM; inactive means the rest
Choose the fitting class; nothing outside active, inactive is accepted.

Worked cases, answers included:
1) CS(=O)(=O)N1CCN(Cc2cc3nc(-c4cccc5[nH]ncc45)nc(N4CCOCC4)c3s2)CC1 (tested in a mixture with another compound)	active
2) Cn1ccc(=Nc2ccc(NC(=O)c3ccc(N=c4ccn(C)c5ccc([N+](=O)[O-])cc45)cc3)cc2)cc1	inactive
3) O=C1C(Cl)=C(Nc2ccc3cn[nH]c3c2)C(=O)c2ccccc21	inactive

Query: recorded result category for `COc1cc2cc(Oc3ccc(NC(=O)Nc4ccccc4)cc3)c(C)nc2cc1OCCN1CCCCC1` in this test inactive

Outcome? `CN(C)c1ccc(/C=C/c2sc3ccc4ccccc4c3[n+]2C)cc1` inactive

Look up the recorded call for `O=C1c2ccccc2S(=O)(=O)N1CSC(=S)N1CCCC1` in this test. inactive

For NC1=NC(c2ccccc2)N=C(Nc2ccccc2)N1 (stereo unspecified) , which call appears in the assay record? inactive

Test call for this compound, please: `CC[N+](CC)=c1ccc2nc3c(cc(NCc4ccccc4)c4ccccc43)oc-2c1` inactive
